- Tested on: Smaller Tea Tortrix (Adoxophyes sp.)
- protocol.details: Insecticidal test on smaller tea tortrix (Test Example 3)
- Assay type: in vivo
- measurement.setup: 50 ppm; tea leaves immersed about 30 seconds; larvae; counted eight days after inoculation; 25° C., humidity 70%
value.kind: Test Example 3: insecticidal effect (mortality criterion)

Guide cases for Test Example 3: insecticidal effect (mortality criterion), answers given:
                                   molecule                        assayed_target        assay_result
0  CC(C)(CS(C)(=O)=O)NC(=O)c1c(I)cccc1C(=O)Nc1cccc(S(F)(F)(F)(F)F)c1 [3-7]  Smaller Tea Tortrix (Adoxophyes sp.)  A (Mortality 100%)
1  CSCC(C)(C)NC(=O)c1c(I)cccc1C(=O)Nc1ccc(S(F)(F)(F)(F)F)cc1Cl [1-372]  Smaller Tea Tortrix (Adoxophyes sp.)  A (Mortality 100%)
2  CSCC(C)(C)NC(=O)c1c(I)cccc1C(=O)Nc1ccc(S(F)(F)(F)(F)F)cc1 [1-458]  Smaller Tea Tortrix (Adoxophyes sp.)  A (Mortality 100%)
3  CSCC(C)(C)NC(=O)c1c(I)cccc1C(=O)Nc1ccc(S(F)(F)(F)(F)F)cc1C [1-296]  Smaller Tea Tortrix (Adoxophyes sp.)  A (Mortality 100%)
4  CSCC(C)(C)NC(=O)c1c(I)cccc1C(=O)Nc1cccc(S(F)(F)(F)(F)F)c1Cl [3-24]  Smaller Tea Tortrix (Adoxophyes sp.)  A (Mortality 100%)

Entry CC(C)(CS(C)(=O)=O)NC(=O)c1c(I)cccc1C(=O)Nc1cccc(S(F)(F)(F)(F)F)c1Cl [3-26] has what Test Example 3: insecticidal effect (mortality criterion)?
A (Mortality 100%)

Entry CCN(C(=O)c1cccc(I)c1C(=O)NC(C)(C)CS(C)(=O)=O)c1ccc(S(F)(F)(F)(F)F)cc1 [2-24] has what Test Example 3: insecticidal effect (mortality criterion)?
A (Mortality 100%)

* * *

- System: Smaller Tea Tortrix (Adoxophyes sp.)
- protocol.details: Insecticidal test on smaller tea tortrix (Test Example 3)
- Assay type: in vivo
- measurement.setup: 50 ppm; tea leaves immersed about 30 seconds; larvae; counted eight days after inoculation; 25° C., humidity 70%
- Procedure: Tea leaves were immersed for about 30 seconds in a liquid chemical prepared by diluting a preparation containing each compound listed in Tables 1 to 3 as an active ingredient to adjust the concentration to 50 ppm. […] Eight days after the inoculation, the dead and alive larvae were counted and, the mortality was calculated according to the equation shown in Test Example 2, and the insecticidal effect was judged according to the criterion shown in Test Example 1. […]
value.kind: Test Example 3: insecticidal effect (mortality criterion)

Guide cases for Test Example 3: insecticidal effect (mortality criterion), answers given:
>>> print(df.to_string())
                                   compound        assay_result
0  CCN(C(=O)c1cccc(I)c1C(=O)NC(C)(C)CSC)c1ccc(S(F)(F)(F)(F)F)cc1  A (Mortality 100%)
1  CSCC(C)(C)NC(=O)c1c(I)cccc1C(=O)Nc1cccc(S(F)(F)(F)(F)F)c1  A (Mortality 100%)
2  CSCC(C)NC(=O)c1c(I)cccc1C(=O)Nc1ccc(S(F)(F)(F)(F)F)cc1C (centres unmarked)  A (Mortality 100%)
3  Cc1cc(S(F)(F)(F)(F)F)ccc1NC(=O)c1cccc(I)c1C(=O)NC(C)(C)CS(C)(=O)=O  A (Mortality 100%)
4  Cc1cc(S(F)(F)(F)(F)F)ccc1NC(=O)c1cccc(I)c1C(=O)NC(C)CS(C)(=O)=O (centres unmarked)  A (Mortality 100%)

Entry CC(C)(CS(C)(=O)=O)NC(=O)c1c(I)cccc1C(=O)Nc1ccc(S(F)(F)(F)(F)F)cc1Cl has what Test Example 3: insecticidal effect (mortality criterion)?
A (Mortality 100%)

Entry Cc1cc(S(F)(F)(F)(F)F)ccc1NC(=O)c1cccc(I)c1C(=O)NC(C)(C)C[S+](C)[O-] (centres unmarked) has what Test Example 3: insecticidal effect (mortality criterion)?
A (Mortality 100%)

Data origin, for the record: patent US7151195B2
